Each recorded value in this set is attributed to patent US20250304677A1.

Kindly state koff for each of the entries shown.
Target: T1, human folate receptor alpha (hFRα), recombinant protein (human, UniProt P15328 25-233)
T1 construct: Bought recombinant proteins (His-tagged, or biotinylated via Avi-tag, e.g. AcroBiosystems FO1-H82E2, F01-H52H1); also called hFOLR1; huFOLR1
T1 sequence (P15328 25-233 limits assumed): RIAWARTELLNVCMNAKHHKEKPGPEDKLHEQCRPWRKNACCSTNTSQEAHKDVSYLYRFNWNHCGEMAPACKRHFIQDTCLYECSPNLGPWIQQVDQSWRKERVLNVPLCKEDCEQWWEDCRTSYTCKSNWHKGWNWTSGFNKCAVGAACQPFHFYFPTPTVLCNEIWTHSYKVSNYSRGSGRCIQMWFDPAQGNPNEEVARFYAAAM
Experiment: BLI, Avi-biotinylated FRα
Method: Purified VHHs ^{∘}100 nM) were analysed for binding to avi-tagged biotinylated FRα protein captured on streptavidin-biosensors via BLI. Off-rates of purified variants were determined to human, mouse, and cynomolgus FRα in BLI. In addition, binding of the affinity optimised variants to cell-expressed human FRα on HeLa cells was determined by flow cytometry ^{∘}FIG. 10 B).

P01500052: P01500001(V51R, D72E)-FLAG3-HIS6 (VHH, also called P0150052) VHH: EVQLVESGGGLVQPGGSLRLSCAASGSGFSGMIMGWYRQAPGKQRELVATRTSHGTTNYADSVKGRFTISRENAKNTVYLQMNSLRPEDTAVYYCNAHFPGIYWGKGTLVTVSS	0.0018 s⁻¹
P01500057: P01500001(G26E, G28P, D72E, N73G)-FLAG3-HIS6 (VHH, also called P0150057) VHH: EVQLVESGGGLVQPGGSLRLSCAASESPFSGMIMGWYRQAPGKQRELVATVTSHGTTNYADSVKGRFTISREGAKNTVYLQMNSLRPEDTAVYYCNAHFPGIYWGKGTLVTVSS	0.000316 s⁻¹
P01500058: P01500001(G26E, G28P)-FLAG3-HIS6 (VHH, also called P0150058) VHH: EVQLVESGGGLVQPGGSLRLSCAASESPFSGMIMGWYRQAPGKQRELVATVTSHGTTNYADSVKGRFTISRDNAKNTVYLQMNSLRPEDTAVYYCNAHFPGIYWGKGTLVTVSS	0.00285 s⁻¹
P01500044: P01500001(S30I, D72E, N73G)-FLAG3-HIS6 (VHH, also called P0150044) VHH: EVQLVESGGGLVQPGGSLRLSCAASGSGFIGMIMGWYRQAPGKQRELVATVTSHGTTNYADSVKGRFTISREGAKNTVYLQMNSLRPEDTAVYYCNAHFPGIYWGKGTLVTVSS	0.000555 s⁻¹
P01500054: P01500001(I33L, N73P)-FLAG3-HIS6 (VHH, also called P0150054) VHH: EVQLVESGGGLVQPGGSLRLSCAASGSGFSGMLMGWYRQAPGKQRELVATVTSHGTTNYADSVKGRFTISRDPAKNTVYLQMNSLRPEDTAVYYCNAHFPGIYWGKGTLVTVSS	0.000937 s⁻¹
P01500055: P01500001(V51R, D72E, N73G)-FLAG3-HIS6 (VHH, also called P0150055) VHH: EVQLVESGGGLVQPGGSLRLSCAASGSGFSGMIMGWYRQAPGKQRELVATRTSHGTTNYADSVKGRFTISREGAKNTVYLQMNSLRPEDTAVYYCNAHFPGIYWGKGTLVTVSS	0.000382 s⁻¹

Dear reader, for each entry below, please note its koff.
1. P01500042: P01500001(G28T, S30I)-FLAG3-HIS6 (VHH, also called P0150042) VHH: EVQLVESGGGLVQPGGSLRLSCAASGSTFIGMIMGWYRQAPGKQRELVATVTSHGTTNYADSVKGRFTISRDNAKNTVYLQMNSLRPEDTAVYYCNAHFPGIYWGKGTLVTVSS
2. P01500006: 2HF042(Q1E, Q5V, A14P, V40A, L79Y, K83R, Q108L)-FLAG3-HIS6 (VHH, Entry includes the tags; also called P0150006) VHH: EVQLVESGGGLVQPGGSLRLSCAASGSGFSGMIMGWYRQAPGKQRELVATVTSHGTTNYADSVKGRFTISRDNAKNTVYLQMNSLRPEDTAVYYCNAHFPGIYWGKGTLVTVSS

["0.00338 s⁻¹", "0.00967 s⁻¹"]
